Values were extracted from ChEMBL document CHEMBL1127388.

Tested on: Rattus norvegicus
Test: Topical anti-inflammatory activity relative to fluocinolone acetonide in rats.
Type: functional
Cut-off 30 on Activity: below means MET, at or above means NOT MET.

Record excerpt, results attached:
[
  {
    "Compound": "C=C1CC2C3CCC4=CC(=O)C=C[C@]4(C)[C@@]3(F)[C@@H](O)C[C@]2(C)[C@@]1(OC(=O)CC)C(=O)[Se]C (stereo partly drawn)",
    "Assay System": "Rattus norvegicus",
    "Label Class": "MET"
  },
  {
    "Compound": "CCC(=O)O[C@]1(C(=O)SCCl)[C@H](C)CC2C3C[C@H](F)C4=CC(=O)C=C[C@]4(C)[C@@]3(F)[C@@H](O)C[C@@]21C (stereo partly drawn)",
    "Assay System": "Rattus norvegicus",
    "Label Class": "MET"
  },
  {
    "Compound": "CCC(=O)O[C@]1(C(=O)SCF)CCC2C3CCC4=CC(=O)C=C[C@]4(C)[C@@]3(F)[C@@H](O)C[C@@]21C (stereo partly drawn)",
    "Assay System": "Rattus norvegicus",
    "Label Class": "NOT MET"
  },
  {
    "Compound": "CCC(=O)O[C@]1(C(=O)SCF)[C@@H](C)CC2C3CCC4=CC(=O)C=C[C@]4(C)[C@@]3(F)[C@@H](O)C[C@@]21C (stereo partly drawn)",
    "Assay System": "Rattus norvegicus",
    "Label Class": "NOT MET"
  },
  {
    "Compound": "CC(=O)O[C@]1(C(=O)SCF)[C@@H](C)CC2C3CCC4=CC(=O)C=C[C@]4(C)[C@@]3(F)[C@@H](O)C[C@@]21C (stereo partly drawn)",
    "Assay System": "Rattus norvegicus",
    "Label Class": "NOT MET"
  }
]

Problem: # TODO verify Activity < 30 strictly for this compound: CCC(=O)O[C@]1(C(=O)SCF)CCC2C3C[C@H](F)C4=CC(=O)C=C[C@]4(C)[C@H]3[C@@H](O)C[C@@]21C (stereo partly drawn)
Solution: NOT MET

Problem: Quick check: does CCCC(=O)O[C@]1(C(=O)SCF)[C@H](C)CC2C3C[C@H](F)C4=CC(=O)C=C[C@]4(C)[C@@]3(F)[C@@H](O)C[C@@]21C (stereo partly drawn) have Activity under 30?
Solution: NOT MET

Problem: Please state whether Activity is below 30 for CCC(=O)O[C@]1(C(=O)SCCl)[C@@H](C)CC2C3CCC4=CC(=O)C=C[C@]4(C)[C@@]3(F)[C@@H](O)C[C@@]21C (stereo partly drawn)
Solution: NOT MET

Problem: Consider C=C1CC2C3CCC4=CC(=O)C=C[C@]4(C)[C@@]3(F)[C@@H](O)C[C@]2(C)[C@@]1(OC(=O)CC)C(=O)[Se]CCl (stereo partly drawn) . Does its Activity lie strictly below 30?
Solution: MET

Problem: Check if Activity falls below 30 for C=C1CC2C3CCC4=CC(=O)C=C[C@]4(C)[C@@]3(F)[C@@H](O)C[C@]2(C)[C@@]1(OC(=O)CC)C(=O)SCF (stereo partly drawn) .
Solution: MET

Problem: Answer whether the compound CCC(=O)O[C@]1(C(=O)SCF)[C@H](C)C[C@H]2[C@@H]3C[C@H](F)C4=CC(=O)C=C[C@]4(C)[C@@]3(F)[C@@H](O)C[C@@]21C [FLUTICASONE PROPIONATE] has Activity strictly less than 30
Solution: NOT MET

Problem: Please let me know if CC1(C)O[C@@H]2C[C@H]3[C@@H]4C[C@H](F)C5=CC(=O)C=C[C@]5(C)[C@@]4(F)[C@@H](O)C[C@]3(C)[C@]2(C(=O)CO)O1 [FLUOCINOLONE ACETONIDE] shows Activity below 30.
Solution: NOT MET

Problem: In the record for CCC(=O)O[C@]1(C(=O)SCCl)[C@@H](C)CC2C3CCC4=CC(=O)C=C[C@]4(C)[C@H]3[C@@H](O)C[C@@]21C (stereo partly drawn) , is Activity less than 30?
Solution: MET
